- System: Enterococcus faecalis
- measurement_protocol: Antibacterial activity against vancomycin-resistant Enterococcus faecalis ATCC 51575 after 16 to 20 hrs by broth microdilution method
- Format: functional
Here the recorded MIC is given for each entry.

compound: CC(=O)OC(C(=O)Cc1c[nH]c2ccccc12)C(C)C (stereo not given)
tested_system: Enterococcus faecalis
endpoint_result: > 80 µg/mL
--
compound: O=C(O)c1cn(C2CC2)c2cc(N3CCNCC3)c(F)cc2c1=O [CIPROFLOXACIN]
tested_system: Enterococcus faecalis
endpoint_result: 0.625 µg/mL
--
compound: CC(C)C(O)C(=O)Cc1c[nH]c2ccccc12 (single isomer, unassigned; (+))
tested_system: Enterococcus faecalis
endpoint_result: > 80 µg/mL

Q. // lookup MIC for CC(C)C(=O)C(O)Cc1c[nH]c2ccccc12 (single isomer, unassigned; (+))
A. > 80 µg/mL

Q. // lookup MIC for CC(=O)OC(Cc1c[nH]c2ccccc12)C(=O)C(C)C (stereo not given)
A. > 80 µg/mL
